Kindly state Fold improvement in EC50 over BCY10000 on same plate, NCI-H292 for each of the entries shown.
# Test Target: CD137 on Jurkat reporter cells (Promega kit CS196005) (UniProt Q07011 24-255, limits assumed)
# Sequence (Q07011 24-255 limits assumed): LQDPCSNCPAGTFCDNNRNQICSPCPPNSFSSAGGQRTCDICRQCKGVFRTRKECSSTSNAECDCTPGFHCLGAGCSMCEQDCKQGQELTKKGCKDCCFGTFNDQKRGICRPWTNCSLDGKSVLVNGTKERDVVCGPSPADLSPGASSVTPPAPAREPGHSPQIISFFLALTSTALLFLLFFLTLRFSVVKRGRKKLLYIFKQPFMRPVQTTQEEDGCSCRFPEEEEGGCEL
# Assay Summary: cell-based or functional assay
Starred links: 1 amine or outer side, 2 acyl side, 3 side chain; linkers in the order of their positions; H or OH if unused. Positions of bridges follow the written chain, without caps; N, C: chain ends. Non-standard residues stand in square brackets, D forms with d. Chains are numbered I, II in the order given. No end group written: not given here. *: point of attachment. dLys(PYA) = D-lysine Nε-acylated with 4-pentynoic acid, clicked (triazole) to the linker azide, O=C(CCc1cn([*:3])nn1)NCCCC[C@@H](N[*:1])C(=O)[*:2]; TATA = O=C(CC[*:1])N1CN(C(=O)CC[*:2])CN(C(=O)CC[*:3])C1; 1Nal = N[C@@H](Cc1cccc2ccccc12)C(=O)O; Hyp = O=C(O)[C@@H]1C[C@@H](O)CN1; hArg = N=C(N)NCCCC[C@H](N)C(=O)O; tBuAla = CC(C)(C)C[C@H](N)C(=O)O; Cysteamide = C(CS[*:3])N[*:1]; Nle = CCCC[C@H](N)C(=O)O; Pent4ynoyl = C#CCCC(=O)*; Mpa = O=C(O)CCS
One number for each entry, in fold.

Known Fold improvement in EC50 over BCY10000 on same plate, NCI-H292 results, listed for orientation:
>  <Binder>
BCY12484 (not fully specified; BCY12143: Ac-(SEQ ID NO: 64); TATA; linker at dLys(PYA)4; BCY8116: SEQ ID NO: 1; TATA; linker at N-terminus) peptide 1: CPXDCMXDWSTPXWC peptide 2: CXEEXPYCFADPYXC

>  <Units Text>
fold

>  <Value>
5.46

$$$$
>  <Binder>
BCY12588 (linker I:1-I:5-I:15, II:1-II:8-II:15 via TATA; not fully specified (some residues); also: chain 2 present twice on linker, Nectin-4:CD137 1:2, linker at chain B 5 to a chain's N-terminus via N-(acid-PEG3)-N-bis(PEG3-azide)) peptide 1: CP[1Nal]DCM[hArg]DWSTP[Hyp]WC peptide 2: [Mpa][tBuAla]PE[dK](Pent4ynoyl)PYCFADPY[Nle][Cysteamide]

>  <Units Text>
fold

>  <Value>
0.72

$$$$
>  <Binder>
BCY12587 (linker I:1-I:5-I:15, II:1-II:8-II:15 via TATA; not fully specified (some residues); also: chain 2 present twice on linker, Nectin-4:CD137 1:2, linker at chain B 5 to a chain's N-terminus via N-(acid-PEG3)-N-bis(PEG3-azide)) peptide 1: CP[1Nal]DCM[hArg]DWSTP[Hyp]WC peptide 2: [Mpa][tBuAla]PE[dK](Pent4ynoyl)PYCFADPY[Nle]C

>  <Units Text>
fold

>  <Value>
4.2

$$$$

I would be grateful if you could provide Fold improvement in EC50 over BCY10000 on same plate, NCI-H292 for each of the following entries.
1. BCY11021 (not fully specified; BCY7744: Ac-A-(SEQ ID NO: 12)-A; TATA; linker at dLys(PYA)4; BCY11016: [PYA]-[B-Ala]-(SEQ ID NO: 1); TATA; linker at N-term PYA) peptide 1: CPXDCMXDWSTPXWC peptide 2: ACIEEXQYCFADPYXCA
2. heterotandem bicyclic peptide complex BCY11863 (linker I:1-I:5-I:15, II:1-II:8-II:15 via TATA; not fully specified (bridges); also: 1:2 complex: BCY8116 + 2x BCY8928, also called Nectin-4/CD137 heterotandem) peptide 1: CP[1Nal][dD]CM[hArg]DWSTP[Hyp]WC peptide 2: Ac-C[tBuAla]PE[dLys(PYA)]PYCFADPY[Nle]CA
3. BCY12486 (not fully specified; BCY12147: Ac-(SEQ ID NO: 65); TATA; linker at dLys(PYA)4; BCY8116: SEQ ID NO: 1; TATA; linker at N-terminus) peptide 1: CPXDCMXDWSTPXWC peptide 2: CXPEXPYCFANPYXC
4. BCY11385 (not fully specified; BCY11014: Ac-(SEQ ID NO: 6)-Dap(PYA); TATA; linker at C-term Dap(PYA); BCY8116: SEQ ID NO: 1; TATA; linker at N-terminus) peptide 1: CPXDCMXDWSTPXWC peptide 2: CXPEAPYCFADPYXCX

Response:
9.63
4.56
0.25
9.35
